We begin with IC50 values for Fibroblast growth factor receptor 3 (Homo sapiens), as collected from the published literature.
State the answer as a number, implicitly in µM.

Would you kindly share the measured IC50 for Cc1cc(C(=O)NCCn2ccnn2)c(/C=C2\C(=O)Nc3cccc(-c4cccc(Cl)c4)c32)[nH]1 ? 0.94

Would you kindly share the measured IC50 for CNC(=O)c1cc(COc2cnc(Nc3ccc(N4C[C@@H](C)N[C@@H](C)C4)cc3)nc2)c(Cl)c(OC)c1 ? 0.005

Would you kindly share the measured IC50 for CNC(=O)c1cc(CCc2cnc(Nc3cnn(CC4CCN(C)CC4)c3)nc2)c(Cl)c(OC)c1 ? 0.009

Would you kindly share the measured IC50 for CNC(=O)c1cc(CCc2cnc(Nc3cnn([C@H]4CCNC4)c3)nc2)c(F)c(OC)c1 ? 0.014

Would you kindly share the measured IC50 for CNC(=O)c1cc(CCc2cnc(Nc3cnn(C4CCOCC4)c3)nc2)c(F)c(OC)c1 ? 0.006

Would you kindly share the measured IC50 for CCN1CCN(c2ccc(Nc3ncc(CCc4cc(C(=O)NC5CC5)cc5occc45)cn3)cc2)CC1 ? 0.59

Would you kindly share the measured IC50 for CNC(=O)c1cc(CCc2cnc(Nc3cnn(C)c3)nc2)c(F)c(OC)c1 ? 0.03

Would you kindly share the measured IC50 for CCN(CC)CCNC(=O)c1c(C)[nH]c(/C=C2\C(=O)Nc3cccc(-c4cccc(Cl)c4)c32)c1C ? 0.32

Would you kindly share the measured IC50 for CNC(=O)c1cc(CCc2cnc(Nc3ccn4c(C)nnc4c3)nc2)c(F)c(OC)c1 ? 0.022

Would you kindly share the measured IC50 for COc1cc(C(=O)NC2CC2)cc(CCc2cnc(Nc3cnn(C)c3)nc2)c1Cl ? 0.019

Would you kindly share the measured IC50 for CNC(=O)c1cc(CCc2cnc(Nc3cnn(-c4cccnc4)c3)nc2)c(F)c(OC)c1 ? 0.014

Would you kindly share the measured IC50 for CNC(=O)c1cc(CCc2cnc(Nc3cnn(-c4ccccn4)c3)nc2)c(Cl)c(OC)c1 ? 0.152

Would you kindly share the measured IC50 for COc1cc(Nc2ccc3ncc(-c4cnn([C@@H]5CCN(C(=O)C6CN(C(=O)/C=C/CN(C)C)C6)C5)c4)nc3c2)cc(OC)c1 ? 0.042

Would you kindly share the measured IC50 for C=CC(=O)N1CC(C(=O)N2CCC(n3cc(-c4cnc5ccc(Nc6cc(OC)cc(OC)c6)cc5n4)cn3)CC2)C1 ? 0.009

* * *

We begin with IC50 values for Fibroblast growth factor receptor 3 (Homo sapiens, UniProt P22607), as collected from the published literature.

Which IC50 is reported with Fibroblast growth factor receptor 3 (Homo sapiens, UniProt P22607) for this entry: CNC(=O)c1cc(CCc2cnc(Nc3ccc(N4C[C@@H](C)N[C@@H](C)C4)cc3)nc2)c(F)c(OC)c1 ? 14 nM

Which IC50 is reported with Fibroblast growth factor receptor 3 (Homo sapiens, UniProt P22607) for this entry: Nc1cnc(-c2c(F)cccc2F)nc1C(=O)Nc1cnccc1[C@H]1C[C@@H](N)[C@@]2(O)CCC[C@H]2O1 ? > 10000 nM

Which IC50 is reported with Fibroblast growth factor receptor 3 (Homo sapiens, UniProt P22607) for this entry: CN1CC[C@@H](Oc2cc(NC(=O)N3CCCc4cc(CO)c(C=O)nc43)ncc2C#N)C1 ? > 10000 nM

Which IC50 is reported with Fibroblast growth factor receptor 3 (Homo sapiens, UniProt P22607) for this entry: CC1(C)C[C@@H](N)C[C@H](c2ccncc2NC(=O)c2nc(-c3ccccc3)cnc2N)O1 ? 200 nM

Which IC50 is reported with Fibroblast growth factor receptor 3 (Homo sapiens, UniProt P22607) for this entry: [2H]C([2H])([2H])NC(=O)c1cc(C)c(F)c(-c2cnn3cc(-c4cnn([C@@H]5CCN(C)C[C@H]5F)c4)c(O[C@H]4CCOC4)nc23)c1 ? < 10 nM

Which IC50 is reported with Fibroblast growth factor receptor 3 (Homo sapiens, UniProt P22607) for this entry: CC(C(=O)NC1CCN(C)CC1)n1cc(-c2cnn3c(-c4cccc(NC(=O)NCC(F)(F)F)c4)cnc3c2)cn1 (stereo not shown) ? < 10 nM

Which IC50 is reported with Fibroblast growth factor receptor 3 (Homo sapiens, UniProt P22607) for this entry: Cc1nc2cc(-n3ncc(C(=O)c4cc5ccc(-c6ccnnc6)cc5[nH]4)c3N)ccc2[nH]1 ? ≤ 300 nM
